# key: entry, value: pIC50
# Test system: HTT mRNA
# PROTOCOL NOTES: RT-qPCR splicing assay, HTT canonical junction (CJ) and alternative junction (AJ) mRNA
# Format: cell-based, human
# CONDITIONS: Homo sapiens, decrease in HTT canonical junction (CJ) mRNA, RT-qPCR; read-out: HTT CJ IC50
pIC50: −log10 of the molar value.
MEASUREMENT TYPE: pIC50

>>> df
                                   compound    meas_value
0  Cc1c(O)c(-c2ccc3c(=O)n([C@@H]4CCNC5(CC5)C4)ccc3n2)cc2cn(C)nc12  6.00 to 7.00
1  Cc1nc2c(C)cc(-c3cc(F)c4c(=O)n(C5CCNC6(CC6)C5)ccc4c3)cc2o1 (stereo not shown)        > 7.00
2  Cc1cn2cc(-c3ccc4c(=O)n(C5CCNCC5)ncc4c3)cc(Cl)c2n1  6.00 to 7.00
3  Cc1cc(-c2cc3ccn(C4CCNCC4)c(=O)c3cn2)cc2cn(C)nc12  6.00 to 7.00

* * *

# System: Target C
# PROTOCOL NOTES: RT-qPCR splicing assay panel, Target C canonical junction (CJ) mRNA
# Assay type: cell-based, human
# CONDITIONS: Homo sapiens; Table 5 panel; canonical junction qPCR; compound concentration having 50% response in CJ decrease; read-out: Target C IC50 (decrease in CJ mRNA levels)
pIC50: −log10 of the molar value.
MEASUREMENT TYPE: pIC50

>>> print(df.to_string())
                                   compound  measurement_type    meas_value
0  Cc1cn2nc(-c3cc(F)c4c(=O)n(C5CCNCC5)ncc4c3)cc(C)c2n1             pIC50        > 7.00
1  COc1cc(-c2cc(C)c3nc(C)cn3n2)cc2ccn(C3CCNCC3)c(=O)c12             pIC50  5.00 to 6.00
2  Cc1cn2cc(-c3cc(F)c4c(=O)n(C5=CCNCC5)cnc4c3)cc(F)c2n1             pIC50  6.00 to 7.00
3  CC(=O)c1cc(-c2cc(F)c3c(=O)n(C4CCNCC4)ccc3c2)cn2cc(C)nc12 [Compound 393, 2,2,2-trifluoroacetate]             pIC50  5.00 to 6.00
4  COc1cc2c(=O)n(C3CCNCC3)ccc2cc1-c1cc(C)c2nc(C)cn2n1             pIC50        < 5.00
5  Cc1cn2cc(-c3cc(F)c4c(=O)n(C5CCNC5)ccc4c3)cc(C#N)c2n1 (centres unmarked)             pIC50        < 5.00
6  Cc1cn2cc(-c3cc(O)c4c(=O)n(C5CCNC5)ccc4c3)cc(C#N)c2n1 (centres unmarked)             pIC50  6.00 to 7.00
7  Cn1cc2cc(-c3cc4ccn(C5CCNCC5)c(=O)c4cn3)c(O)c(F)c2n1             pIC50  5.00 to 6.00

* * *

# key: entry, value: pIC50
# Test system: MYB mRNA
# PROTOCOL NOTES: RT-qPCR splicing assay, MYB canonical junction (CJ) and alternative junction (AJ) mRNA
# Assay type: cell-based, human
# CONDITIONS: Homo sapiens; Table 5 panel; canonical junction qPCR; compound concentration having 50% response in CJ decrease; read-out: MYB IC50 (decrease in CJ mRNA levels)
pIC50: −log10 of the molar value.
MEASUREMENT TYPE: pIC50

>>> print(df.to_string())
                                    compound  system_under_test  measurement_type    meas_value
 0  Cc1cn2nc(-c3ccn4c(=O)c(C5CCNCC5)ccc4c3)cc(C)c2n1           MYB mRNA             pIC50        > 7.00
 1  Cn1cc2cc(-c3cc(F)c4c(=O)n(C5CCNC6(CC6)C5)ccc4c3)c(O)c(F)c2n1 (centres unmarked)           MYB mRNA             pIC50  6.00 to 7.00
 2  Cc1cc(-c2cnc3c(=O)n(C4CCNCC4)cnc3c2)cc2cn(C)nc12           MYB mRNA             pIC50  5.00 to 6.00
 3  Cc1nc2c(F)cc(-c3ccc4c(=O)n(C5CCN(C)CC5)cnc4c3)cc2s1           MYB mRNA             pIC50  5.00 to 6.00
 4  CN1CCC(n2cnc3cc(-c4cn[nH]c4)ccc3c2=O)CC1           MYB mRNA             pIC50        < 5.00
 5  Cc1cn2cc(-c3cc(F)c4c(=O)n(C5CCNCC5)ccc4c3)cc(F)c2n1           MYB mRNA             pIC50        > 7.00
 6  Cc1cn2cc(-c3ccc4c(c3)CCN(C3CCNCC3)C4=O)ncc2n1           MYB mRNA             pIC50        < 5.00
 7  Cc1cn2cc(-c3cc(F)c4c(=O)n(C5CCNC6(CC6)C5)ccc4c3)cc(C)c2n1 (centres unmarked)           MYB mRNA             pIC50        > 7.00
 8  Cc1cn2nc(-c3cc(Cl)c4c(=O)n(C5CCNCC5)ccc4c3)cc(C)c2n1           MYB mRNA             pIC50        > 7.00
 9  Cc1c(O)c(-c2ncc3c(=O)n(C4CCNC4)ccc3n2)cc2cn(C)nc12 (centres unmarked)           MYB mRNA             pIC50  6.00 to 7.00
10  Cc1cn2cc(-c3cc4ncn(C5CCNCC5)c(=O)c4cc3F)cc(F)c2n1           MYB mRNA             pIC50  6.00 to 7.00
11  Cc1ncc(-c2ccc3c(=O)n(C4CCNCC4)cnc3c2)cn1           MYB mRNA             pIC50  5.00 to 6.00
12  Cc1cn2nc(-c3cc(F)c4c(=O)n(C5CCN(CCF)CC5)ncc4c3)cc(C)c2n1           MYB mRNA             pIC50  6.00 to 7.00
13  Cc1cn2nc(-c3cc(F)c4c(=O)n([C@@H]5CCNC6(CC6)C5)cnc4c3)cc(C)c2n1           MYB mRNA             pIC50  6.00 to 7.00
14  Cc1cn2cc(-c3cc(F)c4c(=O)n(C5CCOCC5)cnc4c3)cc(C#N)c2n1           MYB mRNA             pIC50  6.00 to 7.00
15  Cc1cc(-c2cc3ccn(C4CCNCC4)c(=O)c3cn2)cc2cn(C)nc12           MYB mRNA             pIC50  6.00 to 7.00
16  Cc1cn2cc(-n3ccc4cc(N5C[C@@H](C)N[C@@H](C)C5)ccc4c3=O)nc(C)c2n1           MYB mRNA             pIC50        < 5.00
